Each recorded value in this set is attributed to patent US20190064177A1.

- Tested on: diaphorase
- assay-info: fluorescently labeled diaphorase binding to peptide array with or without excess FAD
- experimental-conditions: ratio without/with FAD calculated from measured binding values, 1 micromolar diaphorase
sequences and their reported Meas. ratio

{"columns": ["ordered-residues", "Meas. ratio"],
 "data": [
  ["FQFGKVVSDGSG [array peptide with C-terminal GSG linker]", 0.64],
  ["YQRHQNVFAKSGG", 2.56],
  ["RYPWNKLYKFDGSG [array peptide with C-terminal GSG linker]", 2.80],
  ["PRFNWKPYGGSG [array peptide with C-terminal GSG linker]", 2.44],
  ["GYHLFEKLYFDGS", 0.70],
  ["RVLPYHGWKWFSG", 2.45],
  ["FNKVLEYKWLFEG", 0.73],
  ["LFDNVLEFVEDGS", 0.69],
  ["RAQYAQYLFGGSG [array peptide with C-terminal GSG linker]", 2.76],
  ["LDRLGEYQFSGSG [array peptide with C-terminal GSG linker]", 0.61],
  ["YNRNAKSSGGSG [array peptide with C-terminal GSG linker]", 2.60],
  ["NHLLEGAFVSEGS", 0.77],
  ["KNRPYNKDLEDGSG [array peptide with C-terminal GSG linker]", 0.14],
  ["PVDFGYQLKVSGS", 0.66],
  ["WRGFKFADGGSG [array peptide with C-terminal GSG linker]", 2.62],
  ["KEDKVFGFRFDGS", 0.70],
  ["YWRFYANWAQLFG", 2.56],
  ["SVLEGYQAVFGGSG [array peptide with C-terminal GSG linker]", 0.50],
  ["VLSLNQVYSEGSG [array peptide with C-terminal GSG linker]", 0.62],
  ["FGKLYQLYNDGSG [array peptide with C-terminal GSG linker]", 0.63],
  ["VERASYNLDGSG [array peptide with C-terminal GSG linker]", 0.34],
  ["PRYSGQYGGSG [array peptide with C-terminal GSG linker]", 2.61],
  ["WLDLGVFPYQHLGSG [array peptide with C-terminal GSG linker]", 0.64],
  ["YRFAQYKGQKDGSG [array peptide with C-terminal GSG linker]", 2.78]
]}
